FYI, the data here is from the supplement of paper PMC13380429.

- Tested on: Caco-2
- assay comment: cell viability relative to DMSO; higher = less toxic
- study conditions: 72 h; 10000 nM
reported property: cell viability (%)
Give just the number in %; leave the unit off.

## Task Data request, read-out cell viability, for COC(=O)c1cc2c(C(F)(F)F)cc(-c3ccccc3)cc2n1O [NHI-2]
## Result 91.2

## Task Data request, read-out cell viability, for Fc1ccc(CNc2ncnc3ccc(F)cc23)cc1 [spautin-1]
## Result 69.3

## Task Data request, read-out cell viability, for C/C(=C\c1csc(C)n1)[C@@H]1C[C@@H]2O[C@]2(C)CCC[C@H](C)[C@H](O)[C@@H](C)C(=O)C(C)(C)[C@@H](O)CC(=O)O1 [epothilone-B]
## Result 50.6

## Task Data request, read-out cell viability, for CN1C(=O)C[C@@H](C(=O)N[C@@H](Cc2c[nH]cn2)C(=O)N2CCC[C@H]2C(N)=O)NC1=O [taltirelin]
## Result 95.9

## Task Data request, read-out cell viability, for COc1ccc(C(C)=O)c(O)c1 [paeonol]
## Result 110

## Task Data request, read-out cell viability, for Nc1ccc(S(=O)(=O)Nc2nccs2)cc1 [sulfathiazole]
## Result 99

## Task Data request, read-out cell viability, for CCC(O)(CC(N)=O)c1ccccc1 (configuration not stated) [3-hydroxy-3-phenylpentanamide]
## Result 95.8

## Task Data request, read-out cell viability, for CNc1nc(C)nc(N[C@H]2CCC[C@@H](C(=O)NCc3ccc(C#N)cc3C(F)(F)F)C2)n1
## Result 95.1

## Task Data request, read-out cell viability, for CCCCc1ccc(C(N)=O)nc1 [bupicomide]
## Result 88

## Task Data request, read-out cell viability, for CCOc1nc2c(N)ncnc2n1CC [ANR-94]
## Result 95.1

## Task Data request, read-out cell viability, for CC(=O)N[C@@H](CCC(N)=O)C(=O)O [aceglutamide]
## Result 83

## Task Data request, read-out cell viability, for CC(=C(CCO)SSCC1CCCO1)N(C=O)Cc1cnc(C)nc1N (stereo in doubt) [fursultiamine]
## Result 96

## Task Data request, read-out cell viability, for O=C(N[C@H]1CN2CCC1CC2)c1ccc2c(c1)OCCO2
## Result 99.1

## Task Data request, read-out cell viability, for O=C(OCCN1CCOCC1)C1(c2ccccc2)CCCCC1 [PRE-084]
## Result 89.1

## Task Data request, read-out cell viability, for CN(C)CCCn1cc(C2=C(c3c[nH]c4ccccc34)C(=O)NC2=O)c2ccccc21
## Result 89.3

## Task Data request, read-out cell viability, for COCC(=O)Nc1c(I)c(C(=O)NCC(O)CO)c(I)c(C(=O)N(C)CC(O)CO)c1I (configuration not stated) [iopromide]
## Result 102

## Task Data request, read-out cell viability, for Cc1c(-c2ccnn2C)cc(C(=O)NCc2ccc(S(C)(=O)=O)cn2)c(=O)n1-c1cccc(C(F)(F)F)c1 [AZD9668]
## Result 101

## Task Data request, read-out cell viability, for CCCc1ncc(C[n+]2ccccc2C)c(N)n1 [amprolium]
## Result 99.9

## Task Data request, read-out cell viability, for COc1c(-c2ccc3cc(NS(C)(=O)=O)ccc3c2)cc(-n2ccc(=O)[nH]c2=O)cc1C(C)(C)C [dasabuvir]
## Result 96.3

## Task Data request, read-out cell viability, for Cc1c(N2C(=O)[C@@H]3[C@H](O)CCN3C2=O)ccc(C#N)c1Cl
## Result 90.3

## Task Data request, read-out cell viability, for CC[C@@H](C)c1ccc(NC(=O)Cn2cnc3c2c(=O)n(C)c(=O)n3C)cc1 (racemic)
## Result 92.5

## Task Data request, read-out cell viability, for CCNCC(O)c1cccc(O)c1 (configuration not stated) [etilefrine]
## Result 104

----------
- System: U2OS
- assay comment: cell viability relative to DMSO; higher = less toxic
- study conditions: 72 h; 1000 nM
reported property: cell viability (%)
Give just the number in %; leave the unit off.

## Task Data request, read-out cell viability, for Clc1ccc(Nc2nnc(Cc3ccncc3)c3ccccc23)cc1
## Result 101

## Task Data request, read-out cell viability, for CC(=O)[C@H]1CC[C@H]2[C@@H]3CC[C@H]4C[C@H](O)CC[C@]4(C)[C@H]3CC[C@]12C
## Result 100

## Task Data request, read-out cell viability, for CN1CC(=O)NC1=N
## Result 98.4

## Task Data request, read-out cell viability, for CC[C@@H](CO)NCCN[C@@H](CC)CO
## Result 96.5

## Task Data request, read-out cell viability, for O=C(O)Cc1ccc(CCNS(=O)(=O)c2ccc(Cl)cc2)cc1
## Result 96.1

## Task Data request, read-out cell viability, for O=C(N/N=C/c1ccc([N+](=O)[O-])o1)c1cc([N+](=O)[O-])cc([N+](=O)[O-])c1O
## Result 96.8

## Task Data request, read-out cell viability, for O=C1[C@H]2CCCC[C@H]2C(=O)N1CCCCN1CCN(c2nsc3ccccc23)CC1
## Result 92.9

## Task Data request, read-out cell viability, for CCOC(=O)C1=C(C)NC(C)=C(C(=O)OCC)C1c1ccccc1/C=C/C(=O)OC(C)(C)C
## Result 92.1

## Task Data request, read-out cell viability, for CNC[C@H](O)c1ccc(O)c(O)c1 [epinephrine]
## Result 104

## Task Data request, read-out cell viability, for CCCNCC(O)COc1ccccc1C(=O)CCc1ccccc1 (configuration not stated)
## Result 94.3

## Task Data request, read-out cell viability, for COCCCC/C(=N\OCCN)c1ccc(C(F)(F)F)cc1
## Result 96.4

## Task Data request, read-out cell viability, for O=C(NC(O)C(Cl)(Cl)Cl)NC(O)C(Cl)(Cl)Cl (configuration not stated)
## Result 94.4

## Task Data request, read-out cell viability, for CCN[C@@H](C)Cc1cccc(C(F)(F)F)c1
## Result 94.3

## Task Data request, read-out cell viability, for O=C(O)CNC(=O)C(CS)Cc1ccccc1 (configuration not stated)
## Result 98.7

## Task Data request, read-out cell viability, for O=C(OCCO)c1ccccc1O [2-hydroxyethyl-salicylate]
## Result 104

## Task Data request, read-out cell viability, for COc1ccc2cc(C(C)C(=O)Oc3ccc(C(N)=S)cc3)ccc2c1 (configuration not stated)
## Result 99.9

## Task Data request, read-out cell viability, for O.O=[Si]=O.O=[Si]=O.O=[Si]=O.O=[Si]=O.[O]=[Mg].[O]=[Mg].[O]=[Mg]
## Result 100

## Task Data request, read-out cell viability, for C[C@@H]1CC[C@@]2(OC1)O[C@H]1C[C@H]3[C@@H]4CC=C5C[C@@H](O)CC[C@]5(C)[C@H]4CC[C@]3(C)[C@H]1[C@@H]2C
## Result 99.9

## Task Data request, read-out cell viability, for CCCCCCOc1cc2c(cc1N(C)c1ncc(C(=O)O)cn1)C(C)(C)CCC2(C)C
## Result 101

## Task Data request, read-out cell viability, for Clc1cccc(Cl)c1CSc1nnc(-c2cnccn2)s1
## Result 92

## Task Data request, read-out cell viability, for CC(C)NC[C@@H](C(=O)N1CCN(c2ncnc3c2[C@H](C)C[C@H]3O)CC1)c1ccc(Cl)cc1
## Result 96.8

## Task Data request, read-out cell viability, for CO[C@H]1/C=C/O[C@@]2(C)Oc3c(C)c(O)c4c(O)c(c(/C=N/N5CCN(C)CC5)c(O)c4c3C2=O)NC(=O)/C(C)=C\C=C\[C@H](C)[C@H](O)[C@@H](C)[C@@H](O)[C@@H](C)[C@H](OC(C)=O)[C@@H]1C
## Result 97.2

----------
Provide the recorded cell viability for the entries that follow.
- System: Caco-2
- assay comment: cell viability relative to DMSO; higher = less toxic
- study conditions: 72 h; 10 nM
Give just the number in %; leave the unit off.

## Task Data request, read-out cell viability, for COc1cc(/C=C/C(=O)O)ccc1O
## Result 97.8

## Task Data request, read-out cell viability, for CCOc1cc(N)c(Cl)cc1C(=O)NCC1CN(Cc2ccc(F)cc2)CCO1 (configuration not stated) [mosapride]
## Result 93.4

## Task Data request, read-out cell viability, for CC[C@@H](CO)NCCN[C@@H](CC)CO
## Result 92.3

## Task Data request, read-out cell viability, for CN1C(=O)C[C@@H](C(=O)N[C@@H](Cc2c[nH]cn2)C(=O)N2CCC[C@H]2C(N)=O)NC1=O
## Result 100

## Task Data request, read-out cell viability, for CCOC(=O)[C@]12CC1/C(=N\O)c1ccccc1O2 (some centres not stated)
## Result 94.7

## Task Data request, read-out cell viability, for O=C(c1cc(C2CC2)on1)N(C1CCCCC1)C1CCCCC1
## Result 97.8

## Task Data request, read-out cell viability, for Nc1cccc(CNC(=O)c2ccc(Oc3ccc(OCc4cccc(F)c4)cc3)nc2)c1
## Result 102

## Task Data request, read-out cell viability, for NCCCC[C@H](NC(=O)[C@@H](Cc1cc(Br)c(O)c(Br)c1)NC(=O)N1CCC(N2Cc3ccccc3NC2=O)CC1)C(=O)N1CCN(c2ccncc2)CC1
## Result 97

## Task Data request, read-out cell viability, for O=C(OCCN1CCOCC1)C1(c2ccccc2)CCCCC1
## Result 102

## Task Data request, read-out cell viability, for CC(C)CN(C[C@@H](O)[C@H](Cc1ccccc1)NC(=O)O[C@H]1CCOC1)S(=O)(=O)c1ccc(N)cc1
## Result 100

## Task Data request, read-out cell viability, for CN(C)CCCn1cc(C2=C(c3c[nH]c4ccccc34)C(=O)NC2=O)c2ccccc21
## Result 90.5

## Task Data request, read-out cell viability, for O=C1c2ccccc2-n2c1nc1ccccc1c2=O
## Result 107

## Task Data request, read-out cell viability, for CCOc1ccccc1-n1c(C(C)N2CCN(C(=O)COc3ccc(Cl)cc3)CC2)nc2ccccc2c1=O (configuration not stated)
## Result 94.8

## Task Data request, read-out cell viability, for COC(=O)C1=C(C)NC(C)=C(C(=O)OCCCN2CCC(c3ccccc3)(c3ccccc3)CC2)[C@@H]1c1cccc([N+](=O)[O-])c1
## Result 100

## Task Data request, read-out cell viability, for Cn1ncnc1[C@H]1c2n[nH]c(=O)c3cc(F)cc(c23)N[C@@H]1c1ccc(F)cc1
## Result 96.3

## Task Data request, read-out cell viability, for C#C[C@]1(OC(C)=O)CC[C@H]2[C@@H]3CCC4=CC(=NO)CC[C@@H]4[C@H]3CC[C@@]21CC (mixture of isomers) [norgestimate]
## Result 87.7

## Task Data request, read-out cell viability, for CC(=O)[C@H]1CC[C@H]2[C@@H]3CC[C@H]4C[C@H](O)CC[C@]4(C)[C@H]3CC[C@]12C
## Result 96.6

## Task Data request, read-out cell viability, for O=C(O)c1cccnc1
## Result 96.7

## Task Data request, read-out cell viability, for CNc1nc(C)nc(N[C@H]2CCC[C@@H](C(=O)NCc3ccc(C#N)cc3C(F)(F)F)C2)n1
## Result 102

## Task Data request, read-out cell viability, for O=c1c(O)c(-c2ccc(O)c(O)c2)oc2cc(O)cc(O)c12
## Result 93.6

## Task Data request, read-out cell viability, for CN1CCN(CCOc2cc(OC3CCOCC3)c3c(Nc4c(Cl)ccc5c4OCO5)ncnc3c2)CC1
## Result 102

## Task Data request, read-out cell viability, for CC(C)C(=O)OC[C@@]1(N=[N+]=[N-])O[C@@H](n2ccc(N)nc2=O)[C@H](OC(=O)C(C)C)[C@@H]1OC(=O)C(C)C
## Result 87

## Task Data request, read-out cell viability, for CCOC(=O)C1=C(C)NC(C)=C(C(=O)OCC)C1c1ccccc1/C=C/C(=O)OC(C)(C)C
## Result 91

## Task Data request, read-out cell viability, for CN(C)Cc1ccc(S(=O)(=O)n2ccc(/C=C/C(=O)NO)c2)cc1
## Result 101

## Task Data request, read-out cell viability, for NC(=O)CCCCC1CCSS1 (configuration not stated) [lipoamide]
## Result 90.3

## Task Data request, read-out cell viability, for CC(=O)NCC(=O)N[C@H](CCC(=O)O)C(=O)O
## Result 104

## Task Data request, read-out cell viability, for COCCCC/C(=N\OCCN)c1ccc(C(F)(F)F)cc1
## Result 109
